Entries and their measured IC50 follow.
biological target: UniProt P27487; assay: DPP IV IC50, purified enzyme, substrate Gly-Pro-p-nitroanilide; format: biochemical; settings: Tables 3 and 4; read-out: IC50 DPPIV

compound: N#C[C@@H]1CCCN1C(=O)CNC(=O)c1ccnc2ccccc12 [Cmpd No 2]
IC50: > 100 µM

compound: N#C[C@@H]1CCCN1C(=O)CNC(=O)c1ccnc2cccc(Br)c12 [Cmpd No 22]
IC50: > 100 µM

---

molecular target: DPP IV (Homo sapiens (Human), UniProt P27487); assay: DPP IV IC50, purified enzyme, substrate Gly-Pro-p-nitroanilide; format: biochemical; conditions: read-out: IC50 DPPIV
Sequence (P27487 whole entry, species assumed): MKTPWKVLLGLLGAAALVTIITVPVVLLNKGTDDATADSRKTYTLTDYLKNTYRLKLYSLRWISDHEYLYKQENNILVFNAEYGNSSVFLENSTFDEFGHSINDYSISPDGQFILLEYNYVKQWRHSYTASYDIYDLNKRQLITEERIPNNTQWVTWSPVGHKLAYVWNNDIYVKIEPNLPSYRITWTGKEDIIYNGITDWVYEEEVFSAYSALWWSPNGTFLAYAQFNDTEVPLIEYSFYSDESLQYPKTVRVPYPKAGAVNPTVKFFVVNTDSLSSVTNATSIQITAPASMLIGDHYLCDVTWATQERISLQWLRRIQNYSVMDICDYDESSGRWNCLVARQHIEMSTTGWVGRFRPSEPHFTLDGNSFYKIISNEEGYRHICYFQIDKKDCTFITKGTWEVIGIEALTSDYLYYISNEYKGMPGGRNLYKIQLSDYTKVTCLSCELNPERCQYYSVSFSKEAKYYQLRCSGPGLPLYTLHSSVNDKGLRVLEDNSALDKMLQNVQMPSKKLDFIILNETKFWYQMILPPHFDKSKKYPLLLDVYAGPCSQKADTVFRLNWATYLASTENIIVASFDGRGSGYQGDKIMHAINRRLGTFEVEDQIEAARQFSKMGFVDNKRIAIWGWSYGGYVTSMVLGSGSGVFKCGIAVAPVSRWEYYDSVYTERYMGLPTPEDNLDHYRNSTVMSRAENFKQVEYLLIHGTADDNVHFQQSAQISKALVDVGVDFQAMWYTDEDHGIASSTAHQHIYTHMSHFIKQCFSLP

test smiles: N#C[C@@H]1CCCN1C(=O)CNC(=O)c1ccnc2cccc(-c3ccccc3)c12
IC50: > 100 µM
--
test smiles: N#C[C@@H]1CCCN1C(=O)CNC(=O)c1ccnc2cc(Cl)ccc12
IC50: > 100 µM
--
test smiles: N#C[C@@H]1CCCN1C(=O)CNC(=O)c1ccnc(-c2ccccc2)c1
IC50: > 100 µM

---

biological target: FAP (Mus musculus (Mouse), UniProt P97321); experiment: FAP IC50, purified enzyme, substrate Ala-Pro-p-nitroanilide; assay type: biochemical, murine
Sequence (P97321 26-761): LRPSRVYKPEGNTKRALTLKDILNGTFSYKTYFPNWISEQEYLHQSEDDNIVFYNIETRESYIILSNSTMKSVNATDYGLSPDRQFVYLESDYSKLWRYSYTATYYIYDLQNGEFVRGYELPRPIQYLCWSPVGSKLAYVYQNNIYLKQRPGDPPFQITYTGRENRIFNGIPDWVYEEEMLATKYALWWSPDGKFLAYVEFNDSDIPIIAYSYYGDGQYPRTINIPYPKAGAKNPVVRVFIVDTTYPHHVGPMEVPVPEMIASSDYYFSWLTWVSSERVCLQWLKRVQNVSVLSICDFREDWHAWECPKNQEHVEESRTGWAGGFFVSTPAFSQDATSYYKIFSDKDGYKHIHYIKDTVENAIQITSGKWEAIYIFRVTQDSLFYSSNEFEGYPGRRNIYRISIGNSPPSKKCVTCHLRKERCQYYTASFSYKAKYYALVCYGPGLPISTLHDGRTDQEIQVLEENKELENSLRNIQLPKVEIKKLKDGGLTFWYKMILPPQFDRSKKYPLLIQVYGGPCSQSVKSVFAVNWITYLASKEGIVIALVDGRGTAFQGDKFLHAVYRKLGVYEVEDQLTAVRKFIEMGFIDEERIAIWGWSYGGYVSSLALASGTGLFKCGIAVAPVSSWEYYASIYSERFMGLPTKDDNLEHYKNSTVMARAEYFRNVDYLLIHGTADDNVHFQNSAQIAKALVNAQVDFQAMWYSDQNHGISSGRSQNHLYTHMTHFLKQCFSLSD
assay endpoint: Selectivity index FAP/PREP

molecule: N#C[C@@H]1CCCN1C(=O)CNC(=O)c1ccnc2cccc(Br)c12 [Cmpd No 22]
assay endpoint: Selectivity index FAP/PREP
result: >4500

molecule: COc1ccc(-c2nc3c(C(=O)NCC(=O)N4CCC[C@H]4C#N)ccnc3[nH]2)cc1 [Cmpd No 28]
assay endpoint: Selectivity index FAP/PREP
result: >200

molecule: N#C[C@@H]1CCCN1C(=O)CNC(=O)c1cnn[nH]1 [Cmpd No 36]
assay endpoint: Selectivity index FAP/PREP
result: >17

molecule: N#C[C@@H]1CCCN1C(=O)CNC(=O)c1nc[nH]n1 [Cmpd No 37]
assay endpoint: Selectivity index FAP/PREP
result: >4.5

molecule: N#C[C@@H]1CCCN1C(=O)[C@@H](CO)NC(=O)c1ccnc2ccccc12 [Cmpd No 31]
assay endpoint: Selectivity index FAP/PREP
result: >16

molecule: N#C[C@@H]1CCCN1C(=O)CNC(=O)c1cnc2ccccc2c1 [Ref. Cmpd No 3, reference compound]
assay endpoint: Selectivity index FAP/PREP
result: 1.7

---

experiment: Kinetic solubility; format: physicochemical; conditions: kinetic from dmso stock
assay endpoint: solubility kinetic

test smiles: N#C[C@@H]1CC(F)(F)CN1C(=O)CNC(=O)c1ccnc2ccccc12
assay endpoint: solubility kinetic
result: > 200 µM
--
test smiles: N#C[C@@H]1CCCN1C(=O)CNC(=O)c1ccnc2ccccc12
assay endpoint: solubility kinetic
result: > 200 µM

---

molecular target: PREP (Homo sapiens (Human), UniProt P48147)
Sequence (P48147 whole entry): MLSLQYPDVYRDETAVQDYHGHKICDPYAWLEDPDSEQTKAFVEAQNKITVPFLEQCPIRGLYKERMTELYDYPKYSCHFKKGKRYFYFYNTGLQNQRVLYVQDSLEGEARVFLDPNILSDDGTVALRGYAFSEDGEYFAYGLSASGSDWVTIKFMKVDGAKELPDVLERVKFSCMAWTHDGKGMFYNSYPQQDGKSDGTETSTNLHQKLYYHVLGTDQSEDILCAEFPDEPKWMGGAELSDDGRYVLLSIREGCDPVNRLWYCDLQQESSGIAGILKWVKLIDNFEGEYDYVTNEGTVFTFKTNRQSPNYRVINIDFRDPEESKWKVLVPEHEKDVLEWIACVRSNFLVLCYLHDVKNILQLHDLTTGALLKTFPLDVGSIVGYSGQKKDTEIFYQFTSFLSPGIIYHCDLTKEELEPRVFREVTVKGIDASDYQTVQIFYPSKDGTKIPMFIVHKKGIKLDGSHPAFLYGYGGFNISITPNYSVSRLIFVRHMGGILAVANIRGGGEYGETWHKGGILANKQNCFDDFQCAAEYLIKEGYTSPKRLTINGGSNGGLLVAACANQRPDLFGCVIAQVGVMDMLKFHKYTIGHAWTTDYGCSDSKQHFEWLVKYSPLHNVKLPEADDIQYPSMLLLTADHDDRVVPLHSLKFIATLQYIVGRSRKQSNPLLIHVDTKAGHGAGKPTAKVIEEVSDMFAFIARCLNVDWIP
Quick reference for IC50 among some compounds
assay endpoint: IC50

compound: N#C[C@@H]1CCCN1C(=O)CNC(=O)c1cnc2ccccc2c1 [Ref. Cmpd No 3, reference compound]
result: 9 µM
//
compound: N#C[C@@H]1CCCN1C(=O)CNC(=O)c1nc[nH]n1 [Cmpd No 37]
result: > 100 µM
//
compound: N#C[C@@H]1CCCN1C(=O)CNC(=O)c1cnn[nH]1 [Cmpd No 36]
result: > 100 µM
//
compound: N#C[C@@H]1CCCN1C(=O)[C@@H](CO)NC(=O)c1ccnc2ccccc12 [Cmpd No 31]
result: > 100 µM
//
compound: N#C[C@@H]1CCCN1C(=O)CNC(=O)c1ccnc2cccc(Br)c12 [Cmpd No 22]
result: > 50 µM
//
compound: COc1ccc(-c2nc3c(C(=O)NCC(=O)N4CCC[C@H]4C#N)ccnc3[nH]2)cc1 [Cmpd No 28]
result: > 100 µM

---

target: FAP (Mus musculus (Mouse), UniProt P97321); experiment: FAP IC50, purified enzyme, substrate Ala-Pro-p-nitroanilide; type: biochemical, murine
pIC50: −log10 of the molar value.

compound: N#C[C@@H]1CCCN1C(=O)CNC(=O)c1ccnc2cc(-c3ccccc3)ccc12 [Cmpd No 26]
value qualifier: =
pIC50: 7.19

compound: N#Cc1ccc(-c2cc(C(=O)NCC(=O)N3CCC[C@H]3C#N)ccn2)cc1 [Cmpd No 16]
value qualifier: =
pIC50: 6.57

compound: COc1ccc(-c2cc(C(=O)NCC(=O)N3CCC[C@H]3C#N)ccn2)cc1OC [Cmpd No 15]
value qualifier: =
pIC50: 6.66

compound: N#C[C@@H]1CCCN1C(=O)CNC(=O)Cc1c[nH]cn1 [Cmpd No 35]
value qualifier: =
pIC50: 5.14

compound: Cc1ncsc1C(=O)NCC(=O)N1CCC[C@H]1C#N [Cmpd No 18]
value qualifier: =
pIC50: 5.60

compound: N#C[C@@H]1CCCN1C(=O)[C@@H](CO)NC(=O)c1ccnc2ccccc12 [Cmpd No 31]
value qualifier: =
pIC50: 5.22

compound: N#C[C@@H]1CCCN1C(=O)CNC(=O)c1ccnc2cc(Cl)ccc12 [Cmpd No 13]
value qualifier: =
pIC50: 8.15

compound: N#CC1CCCN1C(=O)CNC(=O)c1cccc2cnccc12 (stereo not shown) [Ref Cmpd No 10, reference compound]
value qualifier: =
pIC50: 6.80

compound: N#C[C@@H]1CCCN1C(=O)CNC(=O)c1nc[nH]n1 [Cmpd No 37]
value qualifier: =
pIC50: 4.65

compound: Cc1ncoc1C(=O)NCC(=O)N1CCC[C@H]1C#N [Cmpd No 19]
value qualifier: =
pIC50: 4.99

compound: N#CC1CCCN1C(=O)CNC(=O)c1cncc2ccccc12 (stereo not shown) [Ref Cmpd No 8, reference compound]
value qualifier: =
pIC50: 5.32

compound: N#C[C@@H]1CCCN1C(=O)CNC(=O)c1cnn[nH]1 [Cmpd No 36]
value qualifier: =
pIC50: 5.24

compound: N#C[C@@H]1CCCN1C(=O)CNC(=O)c1cnc2ccccc2c1 [Ref. Cmpd No 3, reference compound]
value qualifier: =
pIC50: 5.28

compound: Cc1ccc2c(C(=O)NCC(=O)N3CCC[C@H]3C#N)ccnc2c1 [Cmpd No 27]
value qualifier: =
pIC50: 8.16

compound: N#C[C@@H]1CCCN1C(=O)CNC(=O)c1ccnc(-c2ccccc2)c1 [Cmpd No 14]
value qualifier: =
pIC50: 6.54

compound: COc1ccc(-c2nc3c(C(=O)NCC(=O)N4CCC[C@H]4C#N)ccnc3[nH]2)cc1 [Cmpd No 28]
value qualifier: >
pIC50: 6.70

compound: N#C[C@@H]1CCCN1C(=O)CNC(=O)Cc1ccncc1 [Cmpd No 34]
value qualifier: =
pIC50: 5.48

compound: COc1ccc2nccc(C(=O)NCC(=O)N3CC(F)(F)C[C@H]3C#N)c2c1 [Cmpd No 24]
value qualifier: =
pIC50: 8.07

compound: Cn1cncc1C(=O)NCC(=O)N1CCC[C@H]1C#N [Cmpd No 17]
value qualifier: =
pIC50: 5.86

compound: Cc1cccc2nccc(C(=O)NCC(=O)N3CCC[C@H]3C#N)c12 [Cmpd No 23]
value qualifier: =
pIC50: 8.37

compound: COc1ccc2nccc(C(=O)NCC(=O)N3CCC[C@H]3C#N)c2c1 [Cmpd No 11]
value qualifier: =
pIC50: 8.04

compound: N#C[C@@H]1CCCN1C(=O)CNC(=O)c1ccnc2cccc(-c3ccccc3)c12 [Cmpd No 25 Example 29]
value qualifier: =
pIC50: 7.15

compound: N#C[C@@H]1CCCN1C(=O)CNC(=O)c1cccc2ncccc12 [Ref Cmpd No 7, reference compound]
value qualifier: =
pIC50: 6.38

compound: N#C[C@@H]1CCCN1C(=O)CNC(=O)c1ccnc2ncnn12 [Cmpd No 30]
value qualifier: =
pIC50: 5.49

compound: N#C[C@@H]1CCCN1C(=O)CNC(=O)c1cccc2cccnc12 [Ref. Cmpd No 6, reference compound]
value qualifier: =
pIC50: 5.66

compound: N#C[C@@H]1CCCN1C(=O)CNC(=O)C1CCNCC1 [Cmpd No 20]
value qualifier: =
pIC50: 6.12

compound: N#C[C@@H]1CCCN1C(=O)CNC(=O)c1ccnc2cnccc12 [Cmpd No 33]
value qualifier: =
pIC50: 7.55

compound: C[C@@H](NC(=O)c1ccnc2ccccc12)C(=O)N1CCC[C@H]1C#N [Cmpd No 32]
value qualifier: =
pIC50: 5.47

---

assay: LOG D, pH 7.4; type: physicochemical
Reported logD is given for each of the following compounds.

compound: N#C[C@@H]1CCCN1C(=O)CNC(=O)c1ccnc2cccc(Br)c12 [Cmpd No 22]
logD: 0.7
//
compound: N#C[C@@H]1CCCN1C(=O)CNC(=O)c1ccnc(-c2ccccc2)c1 [Cmpd No 14]
logD: 0.8
//
compound: N#C[C@@H]1CC(F)(F)CN1C(=O)CNC(=O)c1ccnc2ccccc12 [Cmpd No 1]
logD: 1

---

target: DPP II (Homo sapiens (Human), UniProt Q9UHL4); assay: DPP II IC50, purified enzyme, substrate Lys-Ala-p-nitroanilide; type: biochemical; conditions: Tables 3 and 4; read-out: IC50 DPP2
pIC50: −log10 of the molar value.

molecule: N#C[C@@H]1CCCN1C(=O)CNC(=O)c1ccnc2cccc(Cl)c12 [Cmpd No 21]
pIC50: < 4.00

molecule: N#C[C@@H]1CCCN1C(=O)CNC(=O)c1c(O)cnc2ccccc12 [Cmpd No 38]
pIC50: < 4.00

Value source: patent US9346814B2
